- Experiment Description: logP by HPLC on reversed-phase column (C 18), EEC Directive 79/B31 Annex V.A8, methods A and B
- Assay type: physicochemical
- Cond: reversed-phase HPLC column (C 18), HPLC reversed-phase C 18, method A: 43° C., 0.1% aqueous phosphoric acid, acetonitrile, linear gradient 10% to 90% acetonitrile
Threshold 3: chromatographic logP strictly smaller gives yes, otherwise no.

Compound: CCOC(=O)c1[nH]c(C)c(C(=O)N(C2CC2)S(=O)(=O)c2cccc(O)c2)c1C [Compound 29]
Qualitative Label: no
//
Compound: Cc1nn(C)c(F)c1C(=O)N(C1CC1)S(=O)(=O)c1ccccc1C(F)(F)F [Compound 207]
Qualitative Label: yes
//
Compound: CCOC(=O)c1[nH]c(C)c(C(=O)N(C2CC2)S(=O)(=O)c2ccc(O)cc2O)c1C [Compound 32]
Qualitative Label: no
//
Compound: Cc1ccccc1S(=O)(=O)N(C(=O)c1c(C)nn(C)c1F)C1CC1 [Compound 196]
Qualitative Label: yes
//
Compound: CCOC(=O)c1[nH]c(C)c(C(=O)N(C2CC2)S(=O)(=O)c2ccc(C(C)(C)C)cc2)c1C [Compound 33]
Qualitative Label: no
//
Compound: Cc1nn(C)cc1C(=O)N(C1CC1)S(=O)(=O)c1ccccc1O [Compound 197]
Qualitative Label: yes
//
Compound: Cc1nn(C)c(F)c1C(=O)N(C1CC1)S(=O)(=O)c1ccc(C(C)(C)C)cc1 [Compound 192]
Qualitative Label: no
//
Compound: Cc1nn(C)c(F)c1C(=O)N(C1CC1)S(=O)(=O)c1cccc([N+](=O)[O-])c1 [Compound 195]
Qualitative Label: yes

----------
- Experiment Description: logP by HPLC on reversed-phase column (C 18), EEC Directive 79/B31 Annex V.A8, methods A and B
- Format: physicochemical
- Cond: reversed-phase HPLC column (C 18), HPLC reversed-phase C 18, method B: 40° C., 0.1% aqueous formic acid and acetonitrile, linear gradient 10% to 90% acetonitrile
Parameter Measured: chromatographic logP

Structure Smiles: Cn1nc(C(F)(F)F)c(C(=O)N(C2CC2)S(=O)(=O)c2ccc(O)c(O)c2O)c1F
Result: 4.1
--
Structure Smiles: CCCOc1nn(C)cc1C(=O)N(C1CC1)S(=O)(=O)c1ccc(Oc2cccc(O)c2)cc1Br
Result: 4.5
--
Structure Smiles: CCCOc1nn(C)cc1C(=O)N(C1CC1)S(=O)(=O)c1ccc(Oc2ccc(O)cc2Cl)cc1Br
Result: 4.9
--
Structure Smiles: CC(C)c1nn(C)c(F)c1C(=O)N(C1CC1)S(=O)(=O)c1cccc(O)c1O
Result: 3.6

----------
- Experiment Description: logP by HPLC on reversed-phase column (C 18), EEC Directive 79/B31 Annex V.A8, methods A and B
- Type: physicochemical
- Cond: reversed-phase HPLC column (C 18), HPLC reversed-phase C 18, method B: 40° C., 0.1% aqueous formic acid and acetonitrile, linear gradient 10% to 90% acetonitrile
The entries below are paired with their reported chromatographic logP.
Parameter Measured: chromatographic logP

Compound: CCc1nn(C)c(F)c1C(=O)N(C1CC1)S(=O)(=O)c1ccc(OC)c(OC)c1
Parameter Measured: chromatographic logP
Result: 2.5
//
Compound: Cn1nc(C(F)(F)F)c(C(=O)N(C2CC2)S(=O)(=O)c2ccc(Oc3cccc(C#N)c3Cl)cc2)c1F
Parameter Measured: chromatographic logP
Result: 3.7
//
Compound: CCCOc1nn(C)cc1C(=O)N(C1CC1)S(=O)(=O)c1ccc(Oc2cc(O)cc(O)c2)cc1Br
Parameter Measured: chromatographic logP
Result: 5.1
//
Compound: Cn1nc(C2CC2)c(C(=O)N(C2CC2)S(=O)(=O)c2ccc(O)c(O)c2O)c1F
Parameter Measured: chromatographic logP
Result: 3.9
//
Compound: COc1cscc1C(=O)N(C1CC1)S(=O)(=O)c1ccc(Oc2ccc(Br)cc2)cc1
Parameter Measured: chromatographic logP
Result: 4.4
//
Compound: Cn1cc(C(=O)N(C2CC2)S(=O)(=O)c2cccc(O)c2O)c(C(F)F)n1
Parameter Measured: chromatographic logP
Result: 2.9
//
Compound: O=C(c1ccsc1I)N(C1CC1)S(=O)(=O)c1ccc(Oc2ccccc2)cc1
Parameter Measured: chromatographic logP
Result: 4.3
//
Compound: CCCOc1nn(C)cc1C(=O)N(C1CC1)S(=O)(=O)c1ccc(Oc2cccc(C(F)(F)F)c2)cc1Br
Parameter Measured: chromatographic logP
Result: 4.5
//
Compound: Cc1cc(C(=O)N(C2CC2)S(=O)(=O)c2ccc(O)c(O)c2O)c(C)o1
Parameter Measured: chromatographic logP
Result: 4.4
//
Compound: Cn1nc(C(F)(F)F)c(C(=O)N(C2CC2)S(=O)(=O)c2ccc(F)cc2O)c1F
Parameter Measured: chromatographic logP
Result: 3.1
//
Compound: Cc1nn(C)c(Oc2ccc(O)cc2)c1C(=O)N(C1CC1)S(=O)(=O)c1ccccc1O
Parameter Measured: chromatographic logP
Result: 3.6
//
Compound: Cc1nn(C)c(C#N)c1C(=O)N(C1CC1)S(=O)(=O)c1ccc(O)c(O)c1O
Parameter Measured: chromatographic logP
Result: 3.9
//
Compound: Cn1nc(C(F)(F)F)c(C(=O)N(C2CC2)S(=O)(=O)c2ccccc2I)c1F
Parameter Measured: chromatographic logP
Result: 3
//
Compound: Cc1cc(C(=O)N(C2CC2)S(=O)(=O)c2cccc(O)c2O)nn1C
Parameter Measured: chromatographic logP
Result: 2.7
//
Compound: COc1c(C(=O)N(C2CC2)S(=O)(=O)c2ccc(O)c(O)c2O)c(C)nn1C
Parameter Measured: chromatographic logP
Result: 3.2
//
Compound: Cn1cc(C(=O)N(C2CC2)S(=O)(=O)c2ccc(O)c(O)c2O)c(C(F)(F)F)c1
Parameter Measured: chromatographic logP
Result: 3.9
//
Compound: CCCOc1nn(C)cc1C(=O)N(C1CC1)S(=O)(=O)c1ccc(Oc2ccc(Cl)c(Cl)c2)cc1Br
Parameter Measured: chromatographic logP
Result: 4.9
//
Compound: CC(F)c1nn(C)cc1C(=O)N(C1CC1)S(=O)(=O)c1ccc(O)c(O)c1O (stereo not shown)
Parameter Measured: chromatographic logP
Result: 3.4
//
Compound: Cc1cc(O)cc(O)c1S(=O)(=O)N(C(=O)c1c(C(F)(F)F)nn(C)c1F)C1CC1
Parameter Measured: chromatographic logP
Result: 2.6
//
Compound: CCc1nn(C)c(F)c1C(=O)N(C1CC1)S(=O)(=O)c1ccc(Br)cc1O
Parameter Measured: chromatographic logP
Result: 3.4
//
Compound: Cn1nc(C(F)(F)F)c(C(=O)N(C2CC2)S(=O)(=O)c2ccccc2C(F)(F)F)c1F
Parameter Measured: chromatographic logP
Result: 3.1
//
Compound: Cn1nc(C(F)(F)F)c(C(=O)N(C2CC2)S(=O)(=O)c2c(O)cc(C(F)(F)F)cc2O)c1F
Parameter Measured: chromatographic logP
Result: 3.9
//
Compound: COc1cscc1C(=O)N(C1CC1)S(=O)(=O)c1cccc(O)c1O
Parameter Measured: chromatographic logP
Result: 3.3
//
Compound: Cn1nc(C(F)(F)F)c(C(=O)N(C2CC2)S(=O)(=O)c2ccc(Oc3ncc(C(F)(F)F)cc3O)cc2)c1F
Parameter Measured: chromatographic logP
Result: 4.2
//
Compound: Cn1nc(C2CC2)c(C(=O)N(C2CC2)S(=O)(=O)c2cccc(O)c2O)c1Cl
Parameter Measured: chromatographic logP
Result: 4.7
//
Compound: CCCOc1nn(C)cc1C(=O)N(C1CC1)S(=O)(=O)c1ccc(Oc2ccc(C)nc2)cc1Br
Parameter Measured: chromatographic logP
Result: 2.7
//
Compound: Cn1nc(C(F)(F)F)c(C(=O)N(C2CC2)S(=O)(=O)c2ccccc2OC(F)(F)F)c1F
Parameter Measured: chromatographic logP
Result: 3.2
//
Compound: CCCOc1nn(C)cc1C(=O)N(C1CC1)S(=O)(=O)c1ccc(Oc2ccccc2)cc1Br
Parameter Measured: chromatographic logP
Result: 4.1

----------
- Experiment Description: logP by HPLC on reversed-phase column (C 18), EEC Directive 79/B31 Annex V.A8, methods A and B
- Assay type: physicochemical
- Cond: reversed-phase HPLC column (C 18), HPLC reversed-phase C 18, method B: 40° C., 0.1% aqueous formic acid and acetonitrile, linear gradient 10% to 90% acetonitrile
- Protocol: Calibration was carried out using unbranched alkan-2-ones (having 3 to 16 carbon atoms) with known logP values (determination of the logP values by the retention times using linear interpolation between two successive alkanones).
Reported chromatographic logP by item:

Structure Smiles: COc1nn(C)cc1C(=O)N(C1CC1)S(=O)(=O)c1c(O)cc(C(F)(F)F)cc1O
chromatographic logP: 3
--
Structure Smiles: Cn1nc(C(F)F)c(C(=O)N(C2CC2)S(=O)(=O)c2ccccc2O)c1F
chromatographic logP: 2.8
--
Structure Smiles: Cc1cc(C(=O)N(C2CC2)S(=O)(=O)c2ccc(Oc3ccc(Br)cc3)cc2)nn1C
chromatographic logP: 4
--
Structure Smiles: Cn1nc(C(F)(F)F)c(C(=O)N(C2CC2)S(=O)(=O)c2c(O)cc(O)cc2O)c1F
chromatographic logP: 3.7
--
Structure Smiles: CC(C)c1nn(C)c(F)c1C(=O)N(C1CC1)S(=O)(=O)c1ccccc1O
chromatographic logP: 3.1
--
Structure Smiles: Cn1nc(C(F)(F)F)c(C(=O)N(C2CC2)S(=O)(=O)c2c(O)cccc2O)c1F
chromatographic logP: 3.1
--
Structure Smiles: CCc1nn(C)c(F)c1C(=O)N(C1CC1)S(=O)(=O)c1ccc(O)c(O)c1
chromatographic logP: 3.8
--
Structure Smiles: CCCOc1nn(C)cc1C(=O)N(C1CC1)S(=O)(=O)c1ccc(Oc2ccc(O)c(C(F)(F)F)c2)cc1Br
chromatographic logP: 4.9

Sourced from patent US7932283B2
